Molecular target: T1, extracellular domain (ECD) of human TrkA protein, N-terminal flag tag and C-terminal His tag (PHA) (human, UniProt P04629 33-423)
T1 construct: Made in 293-F cells and purified by IMAC; also called TrkA ECD protein; TrkA (ECD); not shown: flag tag at the N-terminus (after the signal peptide); His tag at the C-terminus
T1 sequence (P04629 33-423): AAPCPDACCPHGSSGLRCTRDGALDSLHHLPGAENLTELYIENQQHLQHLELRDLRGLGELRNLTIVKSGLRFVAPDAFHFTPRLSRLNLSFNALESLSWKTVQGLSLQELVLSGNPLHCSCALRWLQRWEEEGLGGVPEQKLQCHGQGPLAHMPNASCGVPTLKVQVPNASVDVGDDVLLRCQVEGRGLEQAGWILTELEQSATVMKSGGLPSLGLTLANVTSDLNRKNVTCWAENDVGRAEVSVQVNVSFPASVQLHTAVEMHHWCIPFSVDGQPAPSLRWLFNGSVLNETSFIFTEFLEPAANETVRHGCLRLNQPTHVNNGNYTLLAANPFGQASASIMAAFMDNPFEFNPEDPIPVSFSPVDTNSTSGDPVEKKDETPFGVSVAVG
Assay: BLI (ForteBio)
Consider the following binders; for each one, report its pKd.
Give bare numbers, as −log10 of the molar value.

Please review the entries below; each comes with its answer.
PHD30 (antibody, V domains shown) VH: QVQLVQSGAEVKKPGASVKVSCKASGYTFTEYWMHWVRQAPGQGLEWIGTIYPGNSDSSFAQKFQGRVTLTRDTSTSTAYMELSSLRSEDTAVYYCTRFYYEDWYFDVWGQGTTVTVSS VL: DIQMTQSPSSLSASVGDRVTITCRASSSISYLYWFQQKPGKAPKPLIYRTSSLGSGVPSRFSGSGSGTDYTLTISSLQPEDFATYYCQQYHSYPPTFGGGTKVEIK = 8.14
PHD25 (antibody, V domains shown) VH: QVQLVQSGAEVKKPGASVKVSCKASGYTFTTYWMHWVRQAPGQGLEWIGTIYPGNSDTSFAQKFQGRVTLTRDTSTSTAYMELSSLRSEDTAVYYCTRFYFEDWYFDVWGQGTTVTVSS VL: DIQMTQSPSSLSASVGDRVTITCRASSSISWLYWFQQKPGKAPKPLIYYTSTLGSGVPSRFSGSGSGTDYTLTISSLQPEDFATYYCQQWHSYPPTFGGGTKVEIK = 7.91
PHD26 (antibody, V domains shown) VH: QVQLVQSGAEVKKPGASVKVSCKASGYTFTEYWMHWVRQAPGQGLEWIGTIYPGNSDTSYAQKFQGRVTLTRDTSTSTAYMELSSLRSEDTAVYYCTRFYFEDWYFDVWGQGTTVTVSS VL: DIQMTQSPSSLSASVGDRVTITCRASSSISWLYWFQQKPGKAPKPLIYYTSSLGSGVPSRFSGSGSGTDYTLTISSLQPEDFATYYCQQWHSYPPTFGGGTKVEIK = 7.78
PHD29 (antibody, V domains shown) VH: QVQLVQSGAEVKKPGASVKVSCKASGYTFTTYWMHWVRQAPGQGLEWIGTIYPGNSDTSFAQKFQGRVTLTRDTSTSTAYMELSSLRSEDTAVYYCTRFYFEDWYFDVWGQGTTVTVSS VL: DIQMTQSPSSLSASVGDRVTITCRASSSISWLYWFQQKPGKAPKPLIYYTSSLGSGVPSRFSGSGSGTDYTLTISSLQPEDFATYYCQQWHSYPPTFGGGTKVEIK = 7.92

Continue with the binder presented below.
Which pKd value belongs to PHD28 (antibody, V domains shown) VH: QVQLVQSGAEVKKPGASVKVSCKASGYTFTTYWMHWVRQAPGQGLEWIGTIYPGNSDTSLAQKFQGRVTLTRDTSTSTAYMELSSLRSEDTAVYYCTRFYFEDWYFDVWGQGTTVTVSS VL: DIQMTQSPSSLSASVGDRVTITCRASSSISWLYWFQQKPGKAPKPLIYYTSSLGSGVPSRFSGSGSGTDYTLTISSLQPEDFATYYCQQWHSYPPTFGGGTKVEIK ? 7.74
